Ref: patent US20260200926A1

system tested: Human TREM2 (Homo sapiens)
Construct: expressed in transfected cells
Sequence (Q9NZC2 19-230): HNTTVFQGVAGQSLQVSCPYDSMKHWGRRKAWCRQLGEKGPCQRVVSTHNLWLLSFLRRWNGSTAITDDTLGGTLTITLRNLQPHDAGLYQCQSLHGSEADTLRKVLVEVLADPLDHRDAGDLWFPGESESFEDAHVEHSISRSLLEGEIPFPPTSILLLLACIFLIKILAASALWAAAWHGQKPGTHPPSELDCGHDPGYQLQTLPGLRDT
Sequence (O43914 22-113 partner): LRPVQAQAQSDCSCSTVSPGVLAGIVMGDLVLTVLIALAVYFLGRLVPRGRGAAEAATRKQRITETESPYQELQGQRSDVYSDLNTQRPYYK
method description: Human TREM2 activity: cellular phosphorylation of Syk (AlphaLISA SureFire Ultra p-SYK) in HEK293/DAP12+TREM2 stable cell line
Format: cell-based
details: phospho-Syk AlphaLISA signal, HEK293/DAP12+TREM2 cells; concentration giving 50% of maximal response; read-out: EC50
pEC50: −log10 of the molar value.
Please provide measured pEC50 for the entries that follow.

Ask | Need pEC50 of Cc1nc2c(-c3ccc(Cl)cc3F)cc([C@@H]3CCO[C@H](c4cnn(C5CC5)c4)C3)cc2c(=O)n1C (single isomer, unassigned) [Example 119A] , thanks.
Reply | 6.00 to 7.00

Ask | Same thing, different molecule: Cc1nc2c(-c3ccc(Cl)cc3F)nc(N3CCOC(c4nccs4)C3)nc2c(=O)n1C (stereo not drawn)
Reply | 7.00 to 8.00

Ask | Same thing, different molecule: Cc1cc([C@@H]2CN(c3nc(-c4ccc(F)cc4F)c4nc(C(F)(F)F)n(C)c(=O)c4n3)CCO2)ccn1 (single isomer, unassigned) [Example 154A]
Reply | > 9.00

Ask | Same thing, different molecule: Cc1cc([C@@H]2CN(c3cc4c(=O)n(C)c(C)nc4c(-c4ccc(C(F)F)nc4)n3)C[C@H](C)O2)ccn1 (single isomer, unassigned) [Example 192A]
Reply | 6.00 to 7.00

Ask | Same thing, different molecule: Cc1cc([C@H]2CN(c3cc4c(=O)n(C)c(C)nc4c(-c4ccc(C(F)F)nc4)n3)CC(F)(F)O2)ccn1 (single isomer, unassigned) [Example 181B]
Reply | 8.00 to 9.00

Ask | Same thing, different molecule: Cc1cc([C@@H]2CN(c3cc4c(=O)n(C)c(C)nc4c(-c4ccc(F)cc4F)n3)CCO2)ccn1 (single isomer, unassigned) [Example 136A]
Reply | 8.00 to 9.00

Ask | Same thing, different molecule: Cc1nc2c(C3CCC(C)CC3)nc(N3CCOC(c4cnn(C)c4)C3)nc2c(=O)n1C (single isomer, unassigned) [Example 71A]
Reply | 7.00 to 8.00

Ask | Same thing, different molecule: Cc1nc2c(-c3cc(F)c(F)cc3F)nc([C@@H]3CCO[C@H](c4cnn(C5CC5)c4)C3)nc2c(=O)n1C (single isomer, unassigned) [Example 97A]
Reply | 7.00 to 8.00

Ask | Same thing, different molecule: Cc1nc2c(-c3ccc(Cl)cc3F)nc(N3CCOC(c4cnn(C5CC5)c4)C3)nc2c(=O)n1C (stereo not drawn)
Reply | 8.00 to 9.00
